// values below are IC50; system is IRAK4 (Homo sapiens)
Sequence (Q9NWZ3 whole entry): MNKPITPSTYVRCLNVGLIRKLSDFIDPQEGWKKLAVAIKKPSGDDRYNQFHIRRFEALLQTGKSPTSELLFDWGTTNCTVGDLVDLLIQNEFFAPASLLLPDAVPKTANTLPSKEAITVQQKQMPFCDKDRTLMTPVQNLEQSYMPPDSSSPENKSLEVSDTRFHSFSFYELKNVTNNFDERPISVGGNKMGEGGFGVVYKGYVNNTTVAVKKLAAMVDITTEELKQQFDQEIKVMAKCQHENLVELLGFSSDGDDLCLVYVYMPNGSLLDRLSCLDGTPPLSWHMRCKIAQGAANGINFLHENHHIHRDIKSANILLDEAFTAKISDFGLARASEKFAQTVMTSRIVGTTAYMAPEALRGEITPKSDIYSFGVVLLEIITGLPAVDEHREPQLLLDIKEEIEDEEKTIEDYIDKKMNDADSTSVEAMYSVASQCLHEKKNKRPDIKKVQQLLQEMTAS

Example entries and their recorded answers appear below.
CN(C)[C@H]1CC[C@H](Nc2ncnc3sc4c(c23)C(CCO)CC4)CC1 (some centres unmarked) [Compound I-12] : < 5 µM
CN(C)[C@H]1CC[C@H](Oc2ncnc3sc4c(c23)[C@@H](CC(F)(F)C(N)=O)CC4)CC1 [Compound I-144] : < 5 µM
NC(=O)C(O)C[C@H]1CCc2sc3ncnc(N[C@H]4CC[C@H](N5CCOCC5)CC4)c3c21 (mixture of isomers) [Compound I-118] : < 5 µM
CC1(C)Cc2c(sc3ncnc(O[C@H]4CC[C@H](N5CCOCC5)CC4)c23)CO1 [Compound I-193] : < 5 µM
OC[C@H]1CCc2sc3ncnc(O[C@H]4CC[C@H](N5CCOCC5)CC4)c3c2C1 [Compound I-216] : < 5 µM

Consider the record given below.
Enquiry: Kindly state the measured IC50 obtained for COC(=O)CC1CCc2sc3ncnc(N[C@H]4CC[C@H](N(C)C)CC4)c3c21 (some centres unmarked) [Compound I-11] with IRAK4 (Homo sapiens).
Return: 5 to 20 µM

Data origin: patent US20160193216A1
